Molecular target: Stb5 (UniProt P38699)
Sequence: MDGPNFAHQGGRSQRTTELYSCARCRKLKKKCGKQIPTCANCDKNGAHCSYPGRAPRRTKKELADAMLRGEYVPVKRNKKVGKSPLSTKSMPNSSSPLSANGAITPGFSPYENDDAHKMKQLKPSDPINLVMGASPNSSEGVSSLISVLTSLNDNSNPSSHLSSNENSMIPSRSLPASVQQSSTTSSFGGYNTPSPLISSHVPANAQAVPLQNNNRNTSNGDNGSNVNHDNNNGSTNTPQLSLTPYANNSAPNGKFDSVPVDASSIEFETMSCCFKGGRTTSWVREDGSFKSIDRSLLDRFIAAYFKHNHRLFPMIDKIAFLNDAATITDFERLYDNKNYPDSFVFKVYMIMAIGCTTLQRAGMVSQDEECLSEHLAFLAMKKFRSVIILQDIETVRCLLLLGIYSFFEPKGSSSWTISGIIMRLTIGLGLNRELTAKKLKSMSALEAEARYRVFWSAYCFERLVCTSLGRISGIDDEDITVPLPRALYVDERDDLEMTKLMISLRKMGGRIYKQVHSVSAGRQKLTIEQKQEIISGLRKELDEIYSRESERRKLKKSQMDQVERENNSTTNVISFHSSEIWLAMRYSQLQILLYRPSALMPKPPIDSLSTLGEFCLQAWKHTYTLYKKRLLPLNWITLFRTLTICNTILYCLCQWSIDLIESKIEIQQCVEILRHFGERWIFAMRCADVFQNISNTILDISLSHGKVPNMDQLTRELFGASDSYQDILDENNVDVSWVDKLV
Experiment: PBM E-score (8-mer binding enrichment) (E-score (-0.5 to 0.5)); higher = stronger / more preferred TF binding
Details: protein concentration: 200 nM; construct: GST-full length
Over roughly 33,000 sequences, “E-score (-0.5 to 0.5)” has its median near -0.054; the highest 2% begin near 0.35. Shown is part of a subset that was picked to be rich in the highest values.
Overview of recorded PBM E-score for various sequences
RECORDED ENDPOINT: PBM E-score

- ACACCGGA: 0.402
- ACCAGACA: -0.0752
- GGTGCTCA: 0.0877
- GCGACTCA: -0.156
- ATTCGAGG: 0.0182
- CGTGTCCC: -0.0774
- GACCGACA: 0.341
- CATATCCG: 0.15
- CAATTATC: 0.215
- AACCGACC: 0.244
- ACACCGGG: 0.417
- ACACCGGT: 0.421
- GACCGACC: 0.308
- AGGACCGA: 0.33
- GCTCTTTA: 0.0664
- CTGATAGA: -0.0917
- ATACATTC: -0.228
- TCACCGGA: 0.343
- CGCCGACC: 0.345
- CACCGACC: 0.418
- CCAGCAGC: -0.12
- AGGGGGAC: -0.248
- AACGGGTG: 0.155
- GGTGCTAA: 0.358
- ATGACCGC: 0.381
- CGTTTGCA: 0.0334
- AGTAAAGA: 0.143
- TGTGCTAA: 0.0576
- CGGCAGGA: 0.134
- AGTTTCTG: -0.117
- ATAGAGTA: -0.0125
- ATGATCGG: 0.297
- GTCATTGA: -0.109
- CGCCGACA: 0.354
- CGCCGACG: 0.395
- ATGACCGA: 0.31
- ACTTGACC: -0.0754
- TGCCCCAA: -0.123
- GATTAGTA: 0.0787
- CGGACCGC: 0.298
- CACCGAAC: 0.366
- GGCAGTAC: 0.0214

----------
Target: Stb5 (UniProt P38699)
Sequence: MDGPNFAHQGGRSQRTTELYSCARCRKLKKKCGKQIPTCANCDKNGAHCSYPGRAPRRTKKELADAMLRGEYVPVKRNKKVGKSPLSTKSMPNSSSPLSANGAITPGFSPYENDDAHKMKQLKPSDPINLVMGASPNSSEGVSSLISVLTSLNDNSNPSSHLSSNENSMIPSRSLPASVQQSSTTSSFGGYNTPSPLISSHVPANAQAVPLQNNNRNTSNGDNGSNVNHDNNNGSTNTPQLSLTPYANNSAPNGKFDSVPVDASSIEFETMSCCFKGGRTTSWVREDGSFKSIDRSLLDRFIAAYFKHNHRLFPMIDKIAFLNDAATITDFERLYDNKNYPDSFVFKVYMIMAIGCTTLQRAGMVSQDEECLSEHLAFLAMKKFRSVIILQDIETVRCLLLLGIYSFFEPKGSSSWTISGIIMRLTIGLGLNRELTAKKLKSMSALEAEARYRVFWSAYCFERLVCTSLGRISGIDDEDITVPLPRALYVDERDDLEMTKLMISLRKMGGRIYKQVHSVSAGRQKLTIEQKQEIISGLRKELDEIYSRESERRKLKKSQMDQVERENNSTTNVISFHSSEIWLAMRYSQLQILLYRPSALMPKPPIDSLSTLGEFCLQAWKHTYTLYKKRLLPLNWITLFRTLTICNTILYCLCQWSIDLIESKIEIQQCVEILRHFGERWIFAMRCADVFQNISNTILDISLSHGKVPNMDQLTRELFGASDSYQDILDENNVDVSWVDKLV
Test: PBM E-score (8-mer binding enrichment) (E-score (-0.5 to 0.5)); higher = stronger / more preferred TF binding
Details: protein concentration: 200 nM; construct: GST-full length
Over roughly 33,000 sequences, “E-score (-0.5 to 0.5)” has its median near -0.054; the highest 2% begin near 0.35. Only a selection was taken, and the highest values are over-represented in it overall.
Threshold check on PBM E-score: at or above 0.2 gives 1, strictly below gives -1.

- AAACCAGG: -1
- ACGGACCT: 1
- AGACCAGA: -1
- ACGGACAG: -1
- ACGGACCA: 1
- ATGGTCAG: -1

----------
Molecular target: Stb5 (UniProt P38699)
Sequence: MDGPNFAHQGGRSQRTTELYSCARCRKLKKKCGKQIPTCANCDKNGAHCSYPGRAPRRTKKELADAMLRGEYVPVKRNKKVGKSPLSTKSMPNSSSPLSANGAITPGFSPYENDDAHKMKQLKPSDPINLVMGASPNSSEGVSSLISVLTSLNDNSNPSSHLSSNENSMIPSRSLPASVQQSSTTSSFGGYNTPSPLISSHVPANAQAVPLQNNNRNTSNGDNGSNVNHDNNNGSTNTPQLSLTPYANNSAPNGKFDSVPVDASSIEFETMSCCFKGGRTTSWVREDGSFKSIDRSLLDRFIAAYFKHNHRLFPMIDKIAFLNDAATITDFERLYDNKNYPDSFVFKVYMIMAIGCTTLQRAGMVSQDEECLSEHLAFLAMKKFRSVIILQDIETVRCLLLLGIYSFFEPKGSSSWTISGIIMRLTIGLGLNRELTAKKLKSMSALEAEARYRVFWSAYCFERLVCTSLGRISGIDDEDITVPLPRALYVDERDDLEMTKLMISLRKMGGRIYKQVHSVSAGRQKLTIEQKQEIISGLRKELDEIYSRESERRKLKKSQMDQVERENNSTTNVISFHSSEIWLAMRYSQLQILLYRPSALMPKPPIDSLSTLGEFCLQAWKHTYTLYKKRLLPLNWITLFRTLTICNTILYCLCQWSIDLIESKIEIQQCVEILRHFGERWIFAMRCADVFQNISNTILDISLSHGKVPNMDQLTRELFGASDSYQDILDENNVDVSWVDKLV
Assay: PBM E-score (8-mer binding enrichment) (E-score (-0.5 to 0.5)); higher = stronger / more preferred TF binding
Settings: protein concentration: 200 nM; construct: GST-full length
Whole data set: some 33,000 sequences, median “E-score (-0.5 to 0.5)” near -0.054, cut for the highest 2% near 0.35. The entries come from a sample that favours the highest values as a whole.
RECORDED ENDPOINT: PBM E-score

• CGCCGCGA = 0.289
• AGTACCCG = 0.0305
• CAGCAGTC = -0.115
• ACCGACAC = 0.361
• ATTACCTG = -0.0469
• CGGTATTA = 0.472
• CATGTGCC = -0.177
• CGTACCGA = 0.205
• ATTACCGC = 0.419
• GGATAGGA = -0.00719
• CCCGACAG = 0.305
• GAGAGGCC = -0.0937
• CGTACCGC = 0.302
• ATTACCGA = 0.38
• CTTACCCC = 0.222
• AACAGGCA = -0.186
• CCCGACAC = 0.34
• AGCCGCCC = 0.144
• ATAATACC = 0.368
• CGGTATCC = 0.211
• ACTTTGGG = -0.0994
• CTCCGCCA = 0.293
• CCCGACAA = 0.328
• ACTACCGG = 0.279
• GGCAGTAA = 0.256
• GCCGACAC = 0.239
• CTTGTGGC = -0.163
• ATTACCGG = 0.371
• GCCGATAA = 0.313
• ATTATACC = 0.362
• ACATTAGA = -0.214
• ATTATACG = 0.173
• GTTACCGA = 0.197
• TGTACGAA = -0.0429
• ACTACCGC = 0.329
• AGGTGGTA = 0.165
• CGCCGCGC = 0.368

Just for reference, the supplement of paper PMC3334620 is where these values come from.
